Recorded values, source ChEMBL document CHEMBL6096673.

# measurement-notes: Binding affinity to carboxylesterase (unknown origin) assessed as inhibition constant by fluorescence analysis
# Set-up: species or system Homo sapiens
attribute-measured: Ki
Record the result as a number with its unit.

IN: # lookup: Ki of O=C(CC(=O)C(F)(F)F)c1cccs1
OUT: 610 nM

###

IC50 values recorded for Liver carboxylesterase (Sus scrofa)
The reply should be a number in nM, with the unit left off.

IN: # lookup: IC50 of COc1nc(O)c(C(=O)CC[C@H](C)[C@@H](Cl)CCl)c(O)c1OC
OUT: 315

IN: # lookup: IC50 of COc1nc(O)c(C(=O)[C@H](C)C[C@H](C)[C@@H](Cl)CCl)c(O)c1OC
OUT: 2000

IN: # lookup: IC50 of COc1nc(O)c(C(=O)[C@@H](C)C[C@H](C)[C@H](C)Cl)c(O)c1OC
OUT: 110

IN: # lookup: IC50 of COc1nc(O)c(C(=O)[C@@H](C)C[C@@H](C)[C@@H](Cl)CCl)c(O)c1OC
OUT: 7

IN: # lookup: IC50 of COc1[nH]c(=O)c(C(=O)[C@@H](C)C[C@H](C)[C@@H](Cl)CCl)c(O)c1OC
OUT: 14

IN: # lookup: IC50 of CC[C@@H](C)C[C@H](C)C(=O)c1c(O)nc(OC)c(OC)c1O
OUT: 2100

IN: # lookup: IC50 of COc1nc(O)c(C(=O)[C@@H](C)C[C@H](C)[C@H](Cl)CCl)c(O)c1OC
OUT: 22.4

###

# Test system: Plasmodium falciparum
# measurement-notes: Antiplasmodial activity against Plasmodium falciparum
# Type: functional, organism-based
attribute-measured: pIC50
Note on pIC50: it is the negative log10 of concentration, concentration in mol/L.

IN: # lookup: pIC50 of Cc1cc(O)c2c(c1)O[C@@]1(C)CC[C@H]3C(C)(C)CCC[C@]34CO[C@@H]2[C@H]41 [SICCANIN]
OUT: 5.08

###

# study-target: Liver carboxylesterase (Sus scrofa)
# Sequence (Q29550 whole entry): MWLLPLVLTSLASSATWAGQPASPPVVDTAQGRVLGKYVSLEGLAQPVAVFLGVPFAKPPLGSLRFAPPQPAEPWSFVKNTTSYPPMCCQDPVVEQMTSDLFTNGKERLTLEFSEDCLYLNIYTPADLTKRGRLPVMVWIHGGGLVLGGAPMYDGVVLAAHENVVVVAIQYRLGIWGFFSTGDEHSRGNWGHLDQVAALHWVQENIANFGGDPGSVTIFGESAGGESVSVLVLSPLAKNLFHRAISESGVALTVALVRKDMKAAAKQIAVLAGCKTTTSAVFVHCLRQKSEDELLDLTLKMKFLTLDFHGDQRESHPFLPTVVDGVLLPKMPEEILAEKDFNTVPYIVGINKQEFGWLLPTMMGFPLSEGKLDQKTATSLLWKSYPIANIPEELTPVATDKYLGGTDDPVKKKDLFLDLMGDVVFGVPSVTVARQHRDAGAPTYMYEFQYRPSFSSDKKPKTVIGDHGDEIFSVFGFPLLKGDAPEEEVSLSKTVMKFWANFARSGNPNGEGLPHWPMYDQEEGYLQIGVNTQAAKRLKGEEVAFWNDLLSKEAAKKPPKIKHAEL
pIC50: −log10 of the molar value.
attribute-measured: pIC50

IN: # lookup: pIC50 of C=CCC/C=C\C=C/CCCCCCC1CC[C@@H]([C@@H]2CC[C@@H](CC(=O)OC)OO2)O1 (single isomer, unassigned)
OUT: > 6.00

IN: # lookup: pIC50 of O=C(NCCc1ncc(C(F)(F)F)cc1Cl)c1ccccc1C(F)(F)F
OUT: > 6.00

IN: # lookup: pIC50 of C=CCC/C=C\C=C/CCCCCC[C@H]1CC[C@H]([C@@H]2CC[C@@H](CC(=O)OC)OO2)O1
OUT: > 6.00
